For each record, write down the corresponding activation.
Assay: Wnt/beta-catenin pathway activators, primary screen, cell-based, plate reader, single point (AID 743398);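 note: 0% = neutral control wells and 100% = positive control wells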
Details: Wnt/beta-catenin reporter cell assay, activator, at 9.35 µM, stronger effect = higher value
Hit rate of the full screen: of about 300,000 compounds, about 3,600 (1.2%) were called active. Only a selection was taken, and actives are over-represented in it overall.

As a guide, the following entries are already answered.
Cc1cccc(C(=O)OCC(=O)Nc2ccc(F)cc2)c1 | -0.891% (inactive)
COC(=O)[C@]12C[C@H](CC(=O)NCc3cccc(C(F)(F)F)c3)C(=O)N(Cc3ccc4c(c3)OCO4)C1=C[C@H](COCc1ccccc1)O[C@@H]2C | -11.9% (inactive)
O=C(CCCN1C(=O)C(c2ccccc2)Oc2cccnc21)Nc1ccccc1Br (centres undefined) | -1.84% (inactive)
COC(=O)C1=C(C)N(Cc2cccc(C(F)(F)F)c2)C(=NCc2ccccc2)NC1c1ccccc1C(F)(F)F (centres undefined) | -15.6% (inactive)
Cn1c(=NC(=O)c2ccco2)sc2cccc(F)c21 | 61.6% (active)
Cc1ccccc1S(=O)(=O)N1[C@@H](c2cccc(Cl)c2)C(C(=O)OC(C)(C)C)=CC[C@H]1c1ccc(Cl)cc1 | -9.66% (inactive)
Cc1ccc(F)c(S(=O)(=O)NC(=O)C2(C)CCN2C(=O)c2ccco2)c1 (centres undefined) | -0.487% (inactive)
COCC1CCCCN1C(=O)c1cc(COc2ccc(C)c(C)c2)on1 (centres undefined) | 28.7% (inactive)

Documented activation of Cc1nn(CC(=O)Nc2ccc(F)cc2)c(=O)c2ccccc12 : -0.309% (inactive)

====

Test: Wnt/beta-catenin pathway activators, primary screen, cell-based, plate reader, single point (AID 743398);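 note: 0% = neutral control wells and 100% = positive control wells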
Conditions: Wnt/beta-catenin reporter cell assay, activator, at 9.35 µM, stronger effect = higher value
The whole screen tested about 300,000 compounds, of which about 3,600 (1.2%) were called active. The full list was thinned out, with actives kept by preference.
Quantity kind: activation

Batch request: activation per item, same order as input.
1. O=C1C(Sc2cccc(F)c2)=C[C@@]2(O)CC[C@@H](O)[C@]1(Sc1cccc(F)c1)[C@H]2O
2. CC[C@H](C)[C@H]1CNC(=O)C(=O)N1CC1CCN(CCc2ccc(OC)c(OC)c2)CC1

Marked response:
1: -1.51% (inactive); 2: -3.36% (inactive)

Batch request: activation per item, same order as input.
1. COc1ccc(Cn2c(=O)oc3ccccc32)cc1
2. COc1cc(OC)cc(-c2c(-c3ccc(F)cc3)c3cc(-c4ccc5cc[nH]c5c4)ccc3n2C)c1

Marked response:
["8.74% (inactive)", "-17.5% (inactive)"]

====

Experiment: Wnt/beta-catenin pathway activators, primary screen, cell-based, plate reader, single point (AID 743398);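 note: 0% = neutral control wells and 100% = positive control wells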
Settings: Wnt/beta-catenin reporter cell assay, activator, at 9.35 µM, stronger effect = higher value
Out of some 300,000 compounds screened, about 3,600 (1.2%) were called active. The entries come from a sample that favours actives as a whole.
For each record, write down the corresponding activation.
Numbers only, in %.

Cc1[nH]c2ccccc2c1CC(=O)Nc1ccc(Nc2cccnc2)c(-c2cccc(Cl)c2)c1 | -2.14
COC(=O)c1ccc(NC(=O)c2ccco2)cc1 | 58
O=C(/C=C/c1ccc([N+](=O)[O-])o1)NNC(=O)c1ccc(F)cc1 | 37.2
CN1CCN(c2ccc3c(c2)OC[C@H](Cc2ccccc2)NS3(=O)=O)CC1 | -3.42
O=C(NNC(=O)C1CCCC1)c1ccc(F)cc1 | -1.64

Batch request: activation per item, same order as input.
1. O=C(N/N=C/c1ccc([N+](=O)[O-])o1)c1cn(-c2ccccc2)nc1-c1ccc(F)cc1
2. O=C1Oc2ccccc2C(=O)/C1=C/c1ccccc1O
3. Cc1ccc(NC(=O)c2ccco2)cc1
4. O=C(Nc1ccc(O)cc1)c1ccc(NC(=O)c2ccco2)cc1
5. COc1ccc2c(c1)O/C(=C\c1ccccc1O)C2=O
6. Cc1cc(OC(=O)NCCc2ccc(F)cc2)ccc1F

Marked response:
1: -0.879; 2: -4.19; 3: -2.54; 4: 9.09; 5: 39.8; 6: 2.45

====

Test: Wnt/beta-catenin pathway activators, primary screen, cell-based, plate reader, single point (AID 743398);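 note: 0% = neutral control wells and 100% = positive control wells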
Conditions: Wnt/beta-catenin reporter cell assay, activator, at 9.35 µM, stronger effect = higher value
Screen size: about 300,000 compounds; about 3,600 (1.2%) were called active. This excerpt belongs to a sample that is enriched for actives.
Quantity kind: activation (%)
Numbers only, in %.

As a guide, the following entries are already answered.
O=[N+]([O-])c1ccc(Sc2n[nH]c(-c3ccco3)n2)nc1 | -0.107
CCOc1ccc2cc(C#N)c(SCC(=O)OC)nc2c1 | 86
O=C(NCCCn1ccnc1)c1ccccc1F | -0.169
C[C@@H]1CN([C@@H](C)CO)C(=O)CCCn2nncc2CO[C@@H]1CN(C)S(=O)(=O)c1ccc(-c2ccccc2)cc1 | -3.45
Cc1cccc(C)c1NC(=O)CSc1ccc([N+](=O)[O-])cn1 | -1.27
O=C(NC1CCCCC1)c1cc(C2CC2)on1 | 24.8
O=C(NN=Cc1ccco1)C(=O)Nc1ccc(Cl)c([N+](=O)[O-])c1 | -3.58
O=C(NCCCn1ccnc1)c1cc(-c2ccccc2)on1 | 113
CC(C)CNc1cccc2c1S(=O)(=O)N[C@H](C)CO2 | -4.07
COc1ccc(CCNC(=O)CSc2nc(-c3ccc(OC)c(OC)c3)ccc2C#N)cc1 | -3.46

// moving on: another record for activation
Documented activation of COc1ccc(-c2cc(C(=O)NCCCn3ccnc3)no2)cc1 : 6.05

====

Assay: Wnt/beta-catenin pathway activators, primary screen, cell-based, plate reader, single point (AID 743398);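 note: 0% = neutral control wells and 100% = positive control wells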
Settings: Wnt/beta-catenin reporter cell assay, activator, at 9.35 µM
The whole screen tested about 300,000 compounds, of which about 3,600 (1.2%) were called active. Rule as the data show it: active = activation above about 30% (passing the limit was not always enough); inconclusive = no clear call, values can overlap the other calls. The entries come from a sample that favours actives as a whole.
Would you mind answering with one of these outcomes? active, inactive

O=C1c2ccccc2NC(c2ccccc2O)N1NS(=O)(=O)c1ccccc1 (stereo unspecified) | inactive
Cc1cc(/C=C2/SC(=O)N(CC(=O)N3CCCC3)C2=O)c(C)n1C | inactive
CCOC(=O)N1CCN(C(=O)C[C@H]2C[C@@]3(C(=O)OC)C(=C[C@H](C4CCCC4)O[C@@H]3C)N(Cc3ccccc3)C2=O)CC1 | inactive
CCc1nc2c(OCCOc3ccccc3)cccn2c1N(C)C(=O)c1ccccc1F | inactive
COc1ccc(-c2ccc3c(n2)CCCN3S(=O)(=O)c2ccc(C)cc2)cc1 | inactive

Exam item: I would be grateful if you could indicate the recorded call for C[C@H]1[C@H](c2ccccc2)Oc2cc(Br)ccc2S(=O)(=O)N1Cc1cccc(F)c1 .
Marked response: inactive

Exam item: I would be grateful if you could indicate the recorded call for O=C1CC(c2ccccc2)=NN1c1ccc([N+](=O)[O-])cc1 .
Marked response: inactive

====

For each record, write down the corresponding activation.
Assay: Wnt/beta-catenin pathway activators, primary screen, cell-based, plate reader, single point (AID 743398);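 note: 0% = neutral control wells and 100% = positive control wells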
Settings: Wnt/beta-catenin reporter cell assay, activator, at 9.35 µM, stronger effect = higher value
Hit rate of the full screen: of about 300,000 compounds, about 3,600 (1.2%) were called active. The full list was thinned out, with actives kept by preference.

As a guide, the following entries are already answered.
CC1(C(=O)Nc2cccc3c2CCCC3)CCN1C(=O)C1(c2ccccc2)CC1 (stereo not given) | -1.58% (inactive)
COc1ccccc1C1/C(=C(/O)c2ccc(OC(C)C)cc2)C(=O)C(=O)N1c1cc(C)on1 (stereo not given) | -12% (inactive)
COC(=O)c1ccc(CSc2nncn2N)cc1 | -7.5% (inactive)
COC(=O)c1ccc(CSc2ccc(S(=O)(=O)N3CCCCC3)cn2)cc1 | -0.89% (inactive)

Documented activation of O=C(C(=O)N1CCC(CNS(=O)(=O)Cc2ccccc2)CC1)c1cc2ccccc2o1 : -4.41% (inactive)

====

For each record, write down the corresponding activation.
Experiment: Wnt/beta-catenin pathway activators, primary screen, cell-based, plate reader, single point (AID 743398);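 note: 0% = neutral control wells and 100% = positive control wells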
Settings: Wnt/beta-catenin reporter cell assay, activator, at 9.35 µM, stronger effect = higher value
Out of some 300,000 compounds screened, about 3,600 (1.2%) were called active. Many of the other results were omitted from the sample, so actives are more common in it than they were.
Answers are plain numbers, in %.

As a guide, the following entries are already answered.
N#CCCN(C(=S)Nc1ccc(Cl)c(Cl)c1)C1CCCCC1 | -1.58
CC(C)Oc1ccc(CN2CCC2(C)C(=O)NCc2ccc(C(F)(F)F)cc2)cc1 (stereo not given) | -2.84
Cc1ccc(S(=O)(=O)N2[C@@H](Cc3ccccc3)CO[C@H]2CC(=O)OCc2ccccc2)cc1 | -1.94

Batch request: activation per item, same order as input.
1. OCCC#Cc1ccc(N2C(c3ccsc3)=Cc3ccc(F)cc3C2c2c[nH]c3ccccc23)cc1 (stereo not given)
2. OC(c1ccccc1)(c1ccccc1)C1CCN(CCCOc2ccccc2)CC1

Marked response:
1: -4.42; 2: -5.07
